Entry source: patent US20230134571A1

Answer each item with its documented IC80 (µg/ml) with constrains.
molecular target: HIV Env of isolate CNE5 (clade AE) (HIV); test: cell-based or functional assay
# output: bare number, implied unit µg/mL

Summary for this binder, ePGDM13 (antibody, V domains shown) VH: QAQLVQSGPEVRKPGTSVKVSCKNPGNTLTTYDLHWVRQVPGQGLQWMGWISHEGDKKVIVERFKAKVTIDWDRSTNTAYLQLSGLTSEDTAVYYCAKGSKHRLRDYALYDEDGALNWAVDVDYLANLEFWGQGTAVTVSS VL: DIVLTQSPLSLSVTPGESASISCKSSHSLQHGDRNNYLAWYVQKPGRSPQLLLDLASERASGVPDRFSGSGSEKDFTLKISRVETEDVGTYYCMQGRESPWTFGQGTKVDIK : IC80 (µg/ml) with constrains is 0.004

binder PGDM1400 (antibody, V domains shown) VH: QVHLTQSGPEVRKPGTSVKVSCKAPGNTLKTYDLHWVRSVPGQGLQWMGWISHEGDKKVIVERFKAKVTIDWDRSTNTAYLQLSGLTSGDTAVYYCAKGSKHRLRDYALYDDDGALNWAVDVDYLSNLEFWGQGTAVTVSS VL: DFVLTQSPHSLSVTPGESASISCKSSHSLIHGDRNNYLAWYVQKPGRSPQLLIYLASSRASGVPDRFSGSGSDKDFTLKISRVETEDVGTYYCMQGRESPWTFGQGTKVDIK , IC80 (µg/ml) with constrains observed: 0.003

Record summary for ePGDM5 (antibody, V domains shown) VH: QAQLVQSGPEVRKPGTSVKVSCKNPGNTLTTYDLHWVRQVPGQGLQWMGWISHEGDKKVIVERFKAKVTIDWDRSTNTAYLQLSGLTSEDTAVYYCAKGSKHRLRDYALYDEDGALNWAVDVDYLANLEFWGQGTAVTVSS VL: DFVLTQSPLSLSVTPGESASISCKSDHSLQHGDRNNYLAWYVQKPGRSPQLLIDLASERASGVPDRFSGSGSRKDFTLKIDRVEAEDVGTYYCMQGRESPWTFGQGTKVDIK : reported IC80 (µg/ml) with constrains = 0.004

Value of measured IC80 (µg/ml) with constrains for the entry ePGDM9 (antibody, V domains shown) VH: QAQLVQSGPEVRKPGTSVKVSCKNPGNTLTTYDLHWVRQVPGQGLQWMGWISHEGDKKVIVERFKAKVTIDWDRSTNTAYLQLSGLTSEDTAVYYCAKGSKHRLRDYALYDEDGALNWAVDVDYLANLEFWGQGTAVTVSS VL: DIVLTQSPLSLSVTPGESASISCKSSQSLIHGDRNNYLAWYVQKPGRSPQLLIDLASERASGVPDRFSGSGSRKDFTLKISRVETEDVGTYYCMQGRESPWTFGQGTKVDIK : 0.003
